Reference source for all entries: patent US11339124B2

- assay.procedure: Tissue distribution in rats 24 h after iv dose
- Assay type: in vivo
- recorded.conditions: male, Wistar, rat, liver, iv, 5 mg/kg, 5 mg/kg iv, after 24 h, one value per rat, read-out: Tissue distribution, Liver
experimental.endpoint: concentration at 24 h (ng/g)
Report as a plain number; the unit ng/g is understood.

Query: Suppose we examine the compound Cl.O=S(=O)(NCCN1CCNCC1)c1ccc(NC2CCCCC2)c(NCc2ccccc2)c1 [Compound 39, Hydrochloride] ; what concentration at 24 h value has been reported?
Reply: 230

* * *

Recorded log10 of IC50 for the following compounds
- Test system: IMR-32 Neuroblastoma cells
- assay.procedure: Erastin-induced ferroptosis in IMR-32 neuroblastoma cells (Sytox Green cell death readout)
- Format: cell-based
- recorded.conditions: Homo sapiens; IMR-32 cells, 10 μM erastin, compounds 1 nM to 1 μM, triplicate; read-out: IC50, antiferroptotic activity in response to erastin-induced ferroptosis
In our notation, the value equals log10 of IC50 in nM.

Record excerpt, results attached:
CN1CCN(CCNS(=O)(=O)c2ccc(NC3CCCCC3)c(N)c2)CC1 [Compound 24] = 2.37
CN1CCN(CCNS(=O)(=O)c2ccc(NC3CCCCC3)c(NCc3ccccc3)c2)CC1 [Compound 34] = 3.03
O=S(=O)(NCCN1CCOCC1)c1ccc(NC2CCCCC2)c(NCc2ccccc2)c1 [Compound 35] = 1.38

Query: Suppose we examine the compound Cl.NCCNS(=O)(=O)c1ccc(NC2CCCCC2)c(NCc2ccccc2)c1 [Compound 38, Hydrochloride] ; what log10 of IC50 value has been reported?
Reply: 1.08

Query: Suppose we examine the compound Nc1cc(S(=O)(=O)NCCN2CCNCC2)ccc1NC1CCCCC1 [Compound 29] ; what log10 of IC50 value has been reported?
Reply: 2.47

Query: Suppose we examine the compound Nc1cc(S(=O)(=O)NCCN2CCOCC2)ccc1NC1CCCCC1 [Compound 25] ; what log10 of IC50 value has been reported?
Reply: 2.65

Query: Suppose we examine the compound Cl.O=S(=O)(NCCN1CCNCC1)c1ccc(NC2CCCCC2)c(NCc2ccncc2)c1 [Compound 49, Hydrochloride] ; what log10 of IC50 value has been reported?
Reply: 2.65

Query: Suppose we examine the compound CN(C)CCNS(=O)(=O)c1ccc(NC2CCCCC2)c(NCc2ccccc2)c1 [Compound 30] ; what log10 of IC50 value has been reported?
Reply: 2.74

Query: Suppose we examine the compound Cl.O=S(=O)(NCCN1CCNCC1)c1ccc(NC2CCCCC2)c(NCc2ccccc2)c1 [Compound 39, Hydrochloride] ; what log10 of IC50 value has been reported?
Reply: 1.00

Query: Suppose we examine the compound CNCCNS(=O)(=O)c1ccc(NC2CCCCC2)c(NCc2ccncc2)c1.Cl [Compound 47, Hydrochloride] ; what log10 of IC50 value has been reported?
Reply: 2.20

Query: Suppose we examine the compound Cl.NCCNS(=O)(=O)c1ccc(NC2CCCCC2)c(NCc2ccncc2)c1 [Compound 48, Hydrochloride] ; what log10 of IC50 value has been reported?
Reply: 2.05

Query: Suppose we examine the compound CN(C)CCNS(=O)(=O)c1ccc(NC2CCCCC2)c(N)c1 [Compound 20] ; what log10 of IC50 value has been reported?
Reply: 2.20

Query: Suppose we examine the compound CN(C)CCNS(=O)(=O)c1ccc(NC2CCCCC2)c(NCc2ccncc2)c1 [Compound 40] ; what log10 of IC50 value has been reported?
Reply: 3.19

Query: Suppose we examine the compound O=S(=O)(NCCN1CCOCC1)c1ccc(NC2CCCCC2)c(NCc2ccncc2)c1 [Compound 45] ; what log10 of IC50 value has been reported?
Reply: 2.28

Query: Suppose we examine the compound CNCCNS(=O)(=O)c1ccc(NC2CCCCC2)c(NCc2ccccc2)c1.Cl [Compound 37, Hydrochloride] ; what log10 of IC50 value has been reported?
Reply: 0.48

Query: Suppose we examine the compound COCCNS(=O)(=O)c1ccc(NC2CCCCC2)c(N)c1 [Compound 26] ; what log10 of IC50 value has been reported?
Reply: 2.69

Query: Suppose we examine the compound COCCNS(=O)(=O)c1ccc(NC2CCCCC2)c(NCc2ccccc2)c1 [Compound 36] ; what log10 of IC50 value has been reported?
Reply: 1.34
